molecular target: T1, α4β1 (UniProt P13612 34-970; P05556 21-728); assay: competition ELISA; α4β1 preincubated with test mAb, competitor murine HP1/2
T1 construct: The preparation is not described; also called VLA-4; alpha4beta1 integrin
QUANTITY_MEASURED: IC50 (nM)
Answers are plain numbers, in nM.

Dear colleague, I am looking for the recorded IC50 of the following binder: H1L1 (antibody, V domains shown) VH: EVQLVQSGAEVKKPGATVKISCKASGFNIKDTYMHWVQQAPGKGLEWMGRIDPASGDTKYDPKFQVRVTITADTSTDTAYMELSSLRSEDTAVYYCADGMWVSTGYALDFWGQGTLVTVSS VL: SIVMTQSPDSLAVSLGERATINCKASQSVTNDVAWYQQKPGQPPKLLIYYASNRYTGVPDRFSGSGSGTDFTLTISSLQAEDVAVYFCQQDYSSPYTFGQGTKVEIK
1.67
